# tested-system: Regulator of G-protein signaling 7 (Homo sapiens, UniProt P49802)
# Sequence (P49802 whole entry): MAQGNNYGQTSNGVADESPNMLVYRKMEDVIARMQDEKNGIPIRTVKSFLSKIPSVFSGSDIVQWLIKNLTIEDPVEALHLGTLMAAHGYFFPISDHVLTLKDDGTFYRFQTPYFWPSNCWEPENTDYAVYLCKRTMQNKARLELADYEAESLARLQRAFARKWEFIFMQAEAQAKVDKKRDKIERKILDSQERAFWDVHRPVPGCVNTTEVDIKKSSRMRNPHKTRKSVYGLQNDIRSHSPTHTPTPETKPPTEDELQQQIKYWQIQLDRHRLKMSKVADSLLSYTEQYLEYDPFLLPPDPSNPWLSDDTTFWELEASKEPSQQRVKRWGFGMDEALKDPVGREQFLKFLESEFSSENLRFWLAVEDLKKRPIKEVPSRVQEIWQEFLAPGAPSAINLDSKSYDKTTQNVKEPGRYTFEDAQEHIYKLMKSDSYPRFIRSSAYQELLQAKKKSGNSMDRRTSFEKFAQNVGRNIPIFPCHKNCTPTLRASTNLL
# experiment-notes: RGS7-Galphao binding modulators, SAR follow-up, biochemical, multiplexed bead flow cytometry, SAR compounds (AID 2296)
# reported EC50; entries follow

CC1(C)OC(=O)C(=Cc2ccc(-c3ccc(S(N)(=O)=O)cc3)o2)C(=O)O1 | 1870 nM
CN1CCN(C2=C(Cl)C(=O)C(c3cnc(N4CCCCC4)s3)=C(Cl)C2=O)CC1 | 87 nM
Nc1c(C(=O)NCC2CCCO2)sc2nc3c(c(-c4ccco4)c12)CC/C3=C/c1ccco1 (stereo unspecified) | 146 nM
CCN(CC)S(=O)(=O)c1cccc(C(=O)NN=Cc2ccc(O)c(O)c2O)c1 | 381 nM

The molecule CC(=O)OCCCNc1cc(Sc2nc3ccccc3s2)c2nonc2c1[N+](=O)[O-] showed EC50 equal to > 30000 nM

The molecule Cc1[nH]n(-c2ccccc2)c(=S)c1/C=N/c1cccc([N+](=O)[O-])c1 showed EC50 equal to > 30000 nM

The molecule CCOC(=O)c1sc(NC(=O)CSc2nnc(Cc3ccccc3)o2)c(C#N)c1C showed EC50 equal to > 30000 nM

The molecule Cc1cc(Cl)ccc1/N=c1/ssnc1Cl showed EC50 equal to > 30000 nM

The molecule Cc1cc(C)c2c(n1)CCN(CC(=O)N1CCN(c3ccccc3)CC1)C2=O showed EC50 equal to > 30000 nM

The molecule O=C1C(Cl)=C(N2CCCCC2)C(=O)C(Cl)=C1c1cnc(N2CCCCC2)s1 showed EC50 equal to 158 nM

The molecule O=c1c2ccccc2sn1-c1ccccc1 showed EC50 equal to > 30000 nM

The molecule CN=c1scc(C)n1N=Cc1ccc(O)c(O)c1O showed EC50 equal to 244 nM

The molecule CC(NC(=O)c1sc2cc([N+](=O)[O-])ccc2c1Cl)C(C)(C)C (stereo unspecified) showed EC50 equal to > 30000 nM

The molecule COC(=O)CCC(=O)Nc1sc(C)c(C)c1C(N)=O showed EC50 equal to > 30000 nM

The molecule Cc1cc(C)c2c(=O)n(CC(=O)N3CCN(c4ccccc4)CC3)ccc2n1 showed EC50 equal to 67 nM

The molecule Cc1cccc(N2CCN(C(=O)COc3noc4nc(C)cc(C)c34)CC2C)c1 (stereo unspecified) showed EC50 equal to > 30000 nM

The molecule Cc1cccc(N2CCN(C(=O)Cn3sc4nc(C)cc(C)c4c3=O)CC2C)c1 (stereo unspecified) showed EC50 equal to > 30000 nM

The molecule COc1ccc(C2=CC(=O)C=CC2=O)cc1 showed EC50 equal to 356 nM

The molecule CCN(CC)S(=O)(=O)c1cccc(-c2n[nH]c(=S)n2N=Cc2ccc(C(=O)OC)cc2)c1 showed EC50 equal to > 30000 nM

The molecule Cc1cccc(N2CCN(C(=O)Cn3ccc4nc(C)cc(C)c4c3=O)CC2C)c1 (stereo unspecified) showed EC50 equal to > 30000 nM

The molecule O=c1c2ccccc2sn1-c1ccc(S(=O)(=O)N2CCCC2)cc1 showed EC50 equal to > 30000 nM
